assayed-system: NR2B subunit (Rattus norvegicus, UniProt P35439+Q00960)
Construct: from tissue; host or cells: forebrain membranes of male Wistar rats
Sequence (Q00960 27-1482, other chains not shown): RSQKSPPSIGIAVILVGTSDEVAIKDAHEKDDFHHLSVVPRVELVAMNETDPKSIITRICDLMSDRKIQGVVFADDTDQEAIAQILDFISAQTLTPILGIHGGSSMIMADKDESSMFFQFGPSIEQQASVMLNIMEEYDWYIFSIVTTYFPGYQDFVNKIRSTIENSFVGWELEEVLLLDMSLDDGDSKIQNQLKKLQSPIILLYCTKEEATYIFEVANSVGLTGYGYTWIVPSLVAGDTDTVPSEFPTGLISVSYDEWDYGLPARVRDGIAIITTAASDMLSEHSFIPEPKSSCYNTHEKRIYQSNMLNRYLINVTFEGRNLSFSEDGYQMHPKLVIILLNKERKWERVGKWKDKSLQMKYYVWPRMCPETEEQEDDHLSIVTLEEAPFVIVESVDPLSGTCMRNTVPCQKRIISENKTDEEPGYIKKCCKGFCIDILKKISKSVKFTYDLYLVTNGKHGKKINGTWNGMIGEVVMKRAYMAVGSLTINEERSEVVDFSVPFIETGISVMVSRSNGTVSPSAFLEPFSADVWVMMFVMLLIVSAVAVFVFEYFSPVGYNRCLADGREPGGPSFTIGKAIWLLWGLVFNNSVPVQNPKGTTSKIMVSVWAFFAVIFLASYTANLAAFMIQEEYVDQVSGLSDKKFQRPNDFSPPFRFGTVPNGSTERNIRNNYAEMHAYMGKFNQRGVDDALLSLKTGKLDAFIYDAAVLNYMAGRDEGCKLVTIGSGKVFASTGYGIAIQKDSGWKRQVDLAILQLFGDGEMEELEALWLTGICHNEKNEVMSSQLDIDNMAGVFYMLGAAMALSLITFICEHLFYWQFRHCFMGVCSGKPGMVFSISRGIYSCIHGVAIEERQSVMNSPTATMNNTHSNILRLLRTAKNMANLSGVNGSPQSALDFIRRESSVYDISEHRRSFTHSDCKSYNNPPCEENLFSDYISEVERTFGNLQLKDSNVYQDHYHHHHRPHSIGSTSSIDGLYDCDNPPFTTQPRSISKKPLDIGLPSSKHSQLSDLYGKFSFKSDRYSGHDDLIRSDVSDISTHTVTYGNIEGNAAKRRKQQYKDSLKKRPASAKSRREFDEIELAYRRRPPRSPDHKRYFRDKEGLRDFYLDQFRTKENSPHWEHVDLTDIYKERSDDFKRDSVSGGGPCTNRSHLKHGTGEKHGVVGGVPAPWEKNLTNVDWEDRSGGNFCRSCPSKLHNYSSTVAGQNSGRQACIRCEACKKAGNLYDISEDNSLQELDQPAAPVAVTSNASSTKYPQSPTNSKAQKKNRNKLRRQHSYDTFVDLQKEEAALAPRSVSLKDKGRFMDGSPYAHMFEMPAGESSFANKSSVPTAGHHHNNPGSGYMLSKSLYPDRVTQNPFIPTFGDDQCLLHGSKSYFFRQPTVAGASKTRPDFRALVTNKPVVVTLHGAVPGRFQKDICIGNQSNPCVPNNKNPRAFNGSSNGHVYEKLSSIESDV
assay-summary: [3H]-Ro 25,6981 binding assay on rat cerebral membranes
condition-context: rat forebrain membranes, 4 nM [3H]-Ro 25,6981, 2 hours at room temperature; read-out: Ro-binding IC50
measured-quantity: IC50 (nM)

As a guide, the following entries are already answered.
Q) Need IC50 of "O=C(Nc1ccc2[nH]c(=O)[nH]c2c1)C(=O)N1CCC(Cc2ccccc2)CC1" , thanks.
A) 4.4

Q) Need IC50 of "O=C(Nc1ccc2[nH]c(=O)oc2c1)C(=O)N1CCC(Cc2ccc(F)cc2)CC1" , thanks.
A) 18

Q) Need IC50 of O=C(CCN1CCC(Cc2ccc(F)cc2)CC1)c1ccc2[nH]c(=O)oc2c1 [EMD 95885, reference compound] , thanks.
A) 7.2

Q) Need IC50 of "O=C(CN1CCC(Cc2ccccc2)CC1)Nc1ccc2c(c1)CC(=O)N2" , thanks.
A) 29

Q) Need IC50 of "O=C(CNc1ccc2[nH]c(=O)[nH]c2c1)N1CCC(Cc2ccc(F)cc2)CC1" , thanks.
A) 91

[a] O=C(CN1CCC(Cc2ccccc2)CC1)Nc1ccc2[nH]c(=O)oc2c1
[b] O=C(Nc1ccc2[nH]c(=O)oc2c1)C(=O)N1CCC(Cc2ccccc2)CC1
Q) # argmax over IC50 for candidates a and b Mark your answer with the label of the selected entry.
A) b
(b: 5.5 nM, a: 1.7 nM)

----------
Reported IC50 values are given for each entry in this list.
assayed-system: NR2B subunit (Rattus norvegicus, UniProt P35439+Q00960)
Construct: from tissue; host or cells: forebrain membranes of male Wistar rats
assay-summary: [3H]-Ro 25,6981 binding assay on rat cerebral membranes
Give a bare numeral; the unit nM is implied.

Q) Need IC50 of O=c1[nH]c2ccc([S+]([O-])CCN3CCC(Cc4ccc(F)cc4)CC3)cc2o1 (centres unmarked) [CI-1041, reference compound] , thanks.
A) 4

Further cases:
Q) Need IC50 of C[C@@H](CN1CCC(Cc2ccccc2)CC1)[C@@H](O)c1ccc(O)cc1 [Ro 25.6981, reference compound] , thanks.
A) 5.9

----------
assayed-system: NR2B subunit (Rattus norvegicus, UniProt P35439+Q00960)
Construct: from tissue; host or cells: forebrain membranes of male Wistar rats
assay-summary: [3H]-Ro 25,6981 binding assay on rat cerebral membranes
condition-context: rat forebrain membranes, 4 nM [3H]-Ro 25,6981, 2 hours at room temperature; read-out: Ro-binding IC50
pIC50: −log10 of the molar value.
measured-quantity: pIC50

Q) Need pIC50 of Oc1ccc(OCCN2CCC(Cc3ccc(F)cc3)CC2)cc1 [Co-111103, reference compound] , thanks.
A) 8.08

Q) Need pIC50 of Cc1ccc(CC2(O)CCN(CCOc3ccc(O)cc3)CC2)cc1 [Co-101244, reference compound] , thanks.
A) 8.48

Q) Need pIC50 of "O=C(CN1CCC(Cc2ccccc2)CC1)Nc1ccc2[nH]ncc2c1" , thanks.
A) 6.92

[a] O=C1COc2cc(NC(=O)C(=O)N3CCC(Cc4ccccc4)CC3)ccc2N1
[b] O=C(CNc1ccc2[nH]ncc2c1)N1CCC(Cc2ccc(F)cc2)CC1
[c] O=C(Nc1ccc2[nH]c(=O)[nH]c2c1)C(=O)N1CCC(Cc2ccc(F)cc2)CC1
Q) Could you please order the items by pIC50, going from the lowest number to the highest? I'd appreciate it if you listed the labels in the requested order.
A) b, a, c

----------
assayed-system: NMDA receptors (NR2B subunit containing) (Rattus norvegicus, UniProt P35439+Q00960)
Construct: endogenous in cells; host or cells: primary neocortical neurons from 17 day old Charles River rat embryos, 4-7 days in vitro
assay-summary: Functional NMDA antagonist potency: intracellular calcium measurement in primary cultures of rat cortical neurons (fluorimeter plate reader)
Assay type: cell-based
condition-context: rat cortical neurons 4-7 days in vitro, 40 μM NMDA, Fluo-4 intracellular Ca2+; read-out: NMDA IC50
pIC50: −log10 of the molar value.
measured-quantity: pIC50

As a guide, the following entries are already answered.
Q) Need pIC50 of "O=C(Nc1ccc2oc(=O)[nH]c2c1)C(=O)N1CCC(Cc2ccc(F)cc2)CC1" , thanks.
A) 5.33

Q) Need pIC50 of O=C(CCN1CCC(Cc2ccc(F)cc2)CC1)c1ccc2[nH]c(=O)oc2c1 [EMD 95885, reference compound] , thanks.
A) 7.46

Q) Need pIC50 of "O=C(CNc1ccc2[nH]c(=O)[nH]c2c1)N1CCC(Cc2ccc(F)cc2)CC1" , thanks.
A) 7.32

Q) Need pIC50 of "O=C(CNc1ccc2[nH]ncc2c1)N1CCC(Cc2ccc(F)cc2)CC1" , thanks.
A) 6.27

[a] O=C(Nc1ccc2[nH]c(=O)oc2c1)C(=O)N1CCC(Cc2ccccc2)CC1
[b] CS(=O)(=O)Nc1cccc(NC(=O)C(=O)N2CCC(Cc3ccccc3)CC2)c1
Q) # argmax over pIC50 for candidates a and b Mark your answer with the label of the selected entry.
A) a

----------
assayed-system: NMDA receptors (NR2B subunit containing) (Rattus norvegicus, UniProt P35439+Q00960)
Construct: endogenous in cells; host or cells: primary neocortical neurons from 17 day old Charles River rat embryos, 4-7 days in vitro
assay-summary: Functional NMDA antagonist potency: intracellular calcium measurement in primary cultures of rat cortical neurons (fluorimeter plate reader)
Format: cell-based
condition-context: rat cortical neurons 4-7 days in vitro, 40 μM NMDA, Fluo-4 intracellular Ca2+; read-out: NMDA IC50
pIC50: −log10 of the molar value.
measured-quantity: pIC50

As a guide, the following entries are already answered.
Q) What pIC50 appears in the records for this molecule with NMDA receptors (NR2B subunit containing) (Rattus norvegicus, UniProt P35439+Q00960)? O=C(Nc1ccc2[nH]c(=O)[nH]c2c1)C(=O)N1CCC(Cc2ccc(F)cc2)CC1 [Example 2]
A) 9.15

Q) What pIC50 appears in the records for this molecule with NMDA receptors (NR2B subunit containing) (Rattus norvegicus, UniProt P35439+Q00960)? O=C(CN1CCC(Cc2ccccc2)CC1)Nc1ccc2[nH]ncc2c1 [Example 147]
A) 5.88

Q) What pIC50 appears in the records for this molecule with NMDA receptors (NR2B subunit containing) (Rattus norvegicus, UniProt P35439+Q00960)? Cc1ccc(CC2(O)CCN(CCOc3ccc(O)cc3)CC2)cc1 [Co-101244, reference compound]
A) 7.64

Q) What pIC50 appears in the records for this molecule with NMDA receptors (NR2B subunit containing) (Rattus norvegicus, UniProt P35439+Q00960)? O=C(CN1CCC(Cc2ccccc2)CC1)Nc1ccc2c(c1)CC(=O)N2 [Example 143]
A) 6.79

Q) What pIC50 appears in the records for this molecule with NMDA receptors (NR2B subunit containing) (Rattus norvegicus, UniProt P35439+Q00960)? O=C(Nc1ccc2[nH]c(=O)oc2c1)C(=O)N1CCC(Cc2ccc(F)cc2)CC1 [Example 3]
A) 8.49

[a] O=C(Nc1ccc2[nH]c(=O)[nH]c2c1)C(=O)N1CCC(Cc2ccccc2)CC1 [Example 7]
[b] O=C1COc2cc(NC(=O)C(=O)N3CCC(Cc4ccccc4)CC3)ccc2N1 [Example 24]
Q) Dear colleague, could you let me know whether a or b has the lower recorded pIC50? Thanks. Mark your answer with the label of the selected entry.
A) b
(b: 6.95, a: 8.85)
